Give LOGP_NEUTRAL for every item shown.
# Assay protocol: log P by HPLC on a reversed-phase column (C 18), EEC Directive 79/831 Annex V.A8
# Type: physicochemical
# Condition description: neutral range, pH 7.8, 0.001 molar aqueous ammonium hydrogencarbonate/acetonitrile, 55° C.
Hey, just send me the number, nothing else.

Incoming: Query: LOGP_NEUTRAL; subject: CCS(=O)(=O)c1c(-c2nc3cc(C(F)(F)F)ccc3n2C)nc2ccccn12
Outgoing: 2.64

Incoming: Reported LOGP_NEUTRAL for CCS(=O)(=O)c1c(-c2nc3cc4c(cc3[nH]2)OC(F)(F)O4)nc2ccccn12 : what is it?
Outgoing: 2.59

Incoming: # query: LOGP_NEUTRAL of entry CCS(=O)(=O)c1c(-c2nc3cc(C(F)(F)F)ncc3n2C)nc2ccccn12
Outgoing: 2.05

Incoming: What LOGP_NEUTRAL value was documented for this compound, CC[S+]([O-])c1c(-c2nc3cc(C(F)(F)F)ncc3n2C)nc2ccc(OC)cn12 (centres unmarked) ?
Outgoing: 2.48

Incoming: Quick check: LOGP_NEUTRAL of CC[S+]([O-])c1c(-c2nc3cc(C(F)(F)F)ccc3n2C)nc2ccccn12 (centres unmarked) ?
Outgoing: 2.85

Incoming: Dear colleague, I am looking for the recorded LOGP_NEUTRAL of the following compound: CCS(=O)(=O)c1c(-c2nc3cc(C(F)(F)F)ncc3n2C)nc2ccc(C)cn12
Outgoing: 2.36

Incoming: For the compound CCSc1c(-c2nc3cc(C(F)(F)F)ccc3n2C)nc2ccccn12 , what LOGP_NEUTRAL is on record?
Outgoing: 3.41

Incoming: Reported LOGP_NEUTRAL, compound CCS(=O)(=O)c1c(-c2nc3cc(C(F)(F)F)ccc3o2)nc2ccccn12 : ____
Outgoing: 2.94
